Test system: foxtail, giant (giant foxtail, Setaria faberi)
Assay: Test C postemergence, visual plant response rating
Format: in vivo
Settings: Postemergence, 31 g ai/ha
In this section we review reported Foxtail, Giant plant response rating (0 to 100 scale) values for a set of compounds.
The response must contain the number and no unit.

Some compounds with known Foxtail, Giant plant response rating (0 to 100 scale) results, for comparison:
| structure-notation | measured |
| --- | --- |
| CCON=C(c1cc(Cl)cc(Br)c1)c1c(O)c(C)nn(C)c1=O | 70 |
| CC(C)O/N=C(\c1c(O)c(Cl)nn(C)c1=O)c1ccc(F)c2ccccc12 | 70 |
| C#CCON=C(c1cccc(OC)c1)c1c(O)c(C)nn(C)c1=O | 0 |
| CO/N=C(\c1cc(Cl)c(F)c(Cl)c1)c1c(O)c(C)nn(C)c1=O | 0 |
| CCO/N=C(\c1c(O)c(C)nn(C)c1=O)c1cccc2cc(Cl)ccc12 | 100 |
| CCCCO/N=C(\c1cc(Cl)cc(Cl)c1Cl)c1c(O)c(C)nn(C)c1=O | 30 |

Then this compound:
Data request: Hello, please tell me recorded Foxtail, Giant plant response rating (0 to 100 scale) for this one: CO/N=C(/c1c(O)c(C)nn(C)c1=O)c1cccc2cc(SC)ccc12
Data returned: 0

---

System: pigweed (Amaranthus retroflexus)
Assay: Test C preemergence, visual plant response rating
Assay type: in vivo
Conditions: Test C, 125 g ai/ha, 0 is no effect, 100 is complete control
quantity-name: Pigweed plant response rating (0 to 100 scale)
In your answer, state the number alone without any accompanying words.

| structure-notation | measured |
| --- | --- |
| CO/N=C(/c1cccc(/C=C\Cl)c1)c1c(O)c(C)nn(C)c1=O | 0 |

Now examine the next entry.
Data request: # return Pigweed plant response rating (0 to 100 scale) of CC(C)O/N=C(/c1c(O)c(Cl)nn(C)c1=O)c1ccc(F)c2ccccc12 (system: pigweed (Amaranthus retroflexus))
Data returned: 100

---

# Pigweed plant response rating (0 to 100 scale) per record follows
Tested on: pigweed (Amaranthus retroflexus)
Test: Test A postemergence, visual plant response rating
Format: in vivo
Conditions: 500 g ai/ha, postemergence; 0 is no effect, 100 is complete control
Text: […]
# answer = number (no unit)

| compound | measured-target | measured |
| --- | --- | --- |
| C#CCn1nc(C)c(O)c(C(=NOC)c2cccc(Cl)c2)c1=O (mixture of isomers) | pigweed (Amaranthus retroflexus) | 50 |
| CON=C(c1cccc(C(F)(F)F)c1)c1c(O)c(C)nn(C)c1=O | pigweed (Amaranthus retroflexus) | 70 |
| CO/N=C(\c1sccc1C)c1c(O)c(C)nn(C)c1=O | pigweed (Amaranthus retroflexus) | 80 |
| CON=C(c1c(O)c(C)nn(C)c1=O)c1cccc2ccoc12 [Compound 61] | pigweed (Amaranthus retroflexus) | 80 |

Switching to the query record.
Data request: Report Pigweed plant response rating (0 to 100 scale) from pigweed (Amaranthus retroflexus) testing of CCC(=O)Oc1c(C)nn(C)c(=O)c1C(=NOC)c1cccc2ccccc12
Data returned: 90

---

Tested on: blackgrass (Alopecurus myosuroides)
Test: Test C postemergence, visual plant response rating
Assay type: in vivo
Details: Postemergence, 31 g ai/ha
// label = 1 (yes) if Blackgrass plant response rating (0 to 100 scale) is not less than 20, otherwise 0 (no)

Data request: Check the entry C#CCO/N=C(\c1cccc(/C=C\Cl)c1)c1c(O)c(C)nn(C)c1=O [Compound 264] : does Blackgrass plant response rating (0 to 100 scale) equal or exceed 20?
Data returned: 1 (yes)

Data request: Hi, just wondering whether CO/N=C(\c1cc(Cl)c(F)c(Cl)c1)c1c(O)c(C)nn(C)c1=O [Compound 290] shows Blackgrass plant response rating (0 to 100 scale) of 20 or higher.
Data returned: 0 (no)

Data request: Tell me whether Blackgrass plant response rating (0 to 100 scale) is at least 20 here: Cc1nn(C)c(=O)c(C(=NOCC2CC2)c2cc(Cl)cc(Cl)c2Cl)c1O [Compound 293]
Data returned: 0 (no)

---

Test system: galium (catchweed bedstraw, Galium aparine)
Assay: Test C postemergence, visual plant response rating
Type: in vivo
Conditions: Test C, postemergence, 125 g ai/ha
Overview of reported Galium plant response rating (0 to 100 scale) across a group of compounds:
Keep it simple and answer with nothing but the number.

Solved entries:
| compound | measured |
| --- | --- |
| CON=C(c1cc(F)cc(F)c1F)c1c(O)c(C)nn(C)c1=O | 80 |
| CO/N=C(/c1cc(Cl)cc(OC)c1)c1c(O)c(C)nn(C)c1=O | 100 |
| CC(C)O/N=C(/c1c(O)c(Cl)nn(C)c1=O)c1cc(Br)cc2ccccc12 | 100 |

Data request: State its Galium plant response rating (0 to 100 scale) for this compound: C#CCON=C(c1cccc(OCC(F)(F)F)c1)c1c(O)c(C)nn(C)c1=O
Data returned: 30

---

Test system: wheat (Triticum aestivum)
Experiment: Test A postemergence, visual plant response rating
Format: in vivo
Conditions: Postemergence, 125 g ai/ha; 0 to 100 scale (0 no effect, 100 complete control)
A collection of compounds and their measured Wheat plant response rating
Lab note: jot the number down without any unit.

Data request: Name the value of Wheat plant response rating reported for Cc1cccc(/C(=N\O)c2c(O)c(C)nn(C)c2=O)c1 when tested on wheat (Triticum aestivum).
Data returned: 0

Data request: // output Wheat plant response rating; input CCO/N=C(/c1c(O)c(C)nn(C)c1=O)c1cccc2ccccc12 ; system wheat (Triticum aestivum)
Data returned: 0

Data request: State Wheat plant response rating (wheat (Triticum aestivum)) of C#CCO/N=C(/c1c(O)c(C)nn(C)c1=O)c1ccc(F)c2ccccc12 .
Data returned: 90

---

Test system: ragweed (common ragweed, Ambrosia artemisiifolia)
Assay: Test C preemergence, visual plant response rating
Type: in vivo
Details: Test C, 31 g ai/ha, 0 is no effect, 100 is complete control
quantity-name: Ragweed plant response rating (0 to 100 scale)
Lab note: jot the number down without any unit.

| structure-notation | measured-target | measured |
| --- | --- | --- |
| C#CCON=C(c1cccc(OC(F)F)c1)c1c(O)c(C)nn(C)c1=O | ragweed (common ragweed, Ambrosia artemisiifolia) | 0 |
| CO/N=C(/c1c(O)c(C)nn(C)c1=O)c1cccc2cc(SC)ccc12 | ragweed (common ragweed, Ambrosia artemisiifolia) | 0 |
| C#CCO/N=C(/c1c(O)c(C)nn(C)c1=O)c1cc(Cl)cc2ccccc12 | ragweed (common ragweed, Ambrosia artemisiifolia) | 30 |
| CCO/N=C(\c1c(O)c(C)nn(C)c1=O)c1cccc2cc(Cl)ccc12 | ragweed (common ragweed, Ambrosia artemisiifolia) | 20 |
| C#CCON=C(c1cc(Cl)cc(Cl)c1Cl)c1c(O)c(C)nn(C)c1=O | ragweed (common ragweed, Ambrosia artemisiifolia) | 30 |

Read the next record carefully.
Data request: For CO/N=C(\c1c(O)cnn(C)c1=O)c1ccc(F)c2ccccc12 , write its Ragweed plant response rating (0 to 100 scale).
Data returned: 0

---

Test system: pigweed (Amaranthus retroflexus)
Experiment: Test A postemergence, visual plant response rating
Type: in vivo
Conditions: 500 g ai/ha, postemergence; 0 is no effect, 100 is complete control
quantity-name: Pigweed plant response rating (0 to 100 scale)
Please give the numeric answer without any surrounding text.

Please review the following examples before continuing.
| structure-notation | measured-target | measured |
| --- | --- | --- |
| CCCO/N=C(/c1c(O)c(C)nn(C)c1=O)c1cccc2ccccc12 | pigweed (Amaranthus retroflexus) | 90 |
| Cc1nn(C)c(=O)c(/C(=N/OC(C)C)c2ccc(F)c3ccccc23)c1O | pigweed (Amaranthus retroflexus) | 100 |

Data request: Provide pigweed (Amaranthus retroflexus) Pigweed plant response rating (0 to 100 scale) reading for CON=C(c1cccc(C(F)(F)F)c1Cl)c1c(O)c(C)nn(C)c1=O .
Data returned: 30

Data request: # return Pigweed plant response rating (0 to 100 scale) for CON=C(c1c(O)c(C)nn(C)c1=O)c1ccc(C)c2ccccc12 , test system: pigweed (Amaranthus retroflexus)
Data returned: 10

Data request: Specify the recorded Pigweed plant response rating (0 to 100 scale) for CON=C(c1ccccc1C1CC1)c1c(O)c(C)nn(C)c1=O , system: pigweed (Amaranthus retroflexus).
Data returned: 90

---

Test system: Italian ryegrass (Lolium mutiflorum)
Test: Test C preemergence, visual plant response rating
Assay type: in vivo
Conditions: 125 g ai/ha
quantity-name: Ryegrass, Italian plant response rating (0 to 100 scale)

| structure-notation | measured |
| --- | --- |
| Cc1nn(C)c(=O)c(C(=NOC(C)C)c2cc(Cl)cc(Cl)c2F)c1O | 100 |
| CCON=C(c1cc(Cl)cc(Br)c1)c1c(O)c(C)nn(C)c1=O | 100 |

Data request: Report Ryegrass, Italian plant response rating (0 to 100 scale), nothing else, for this molecule: C#CCO/N=C(\c1cc(Cl)cc(Cl)c1Cl)c1c(O)c(C)nn(C)c1=O
Data returned: 100
